Hey, just so you know, these numbers are from paper PMC6404347.

target: mitochondrial respiratory chain complex I (CI) (Bos taurus, UniProt P03887+P17694+P42026); construct: whole CI enzyme immunocaptured from purified bovine heart mitochondria; assay: MitoTox Complex I OXPHOS Activity Microplate Assay (immunocaptured enzyme), dose-response
Sequence (P17694 34-463): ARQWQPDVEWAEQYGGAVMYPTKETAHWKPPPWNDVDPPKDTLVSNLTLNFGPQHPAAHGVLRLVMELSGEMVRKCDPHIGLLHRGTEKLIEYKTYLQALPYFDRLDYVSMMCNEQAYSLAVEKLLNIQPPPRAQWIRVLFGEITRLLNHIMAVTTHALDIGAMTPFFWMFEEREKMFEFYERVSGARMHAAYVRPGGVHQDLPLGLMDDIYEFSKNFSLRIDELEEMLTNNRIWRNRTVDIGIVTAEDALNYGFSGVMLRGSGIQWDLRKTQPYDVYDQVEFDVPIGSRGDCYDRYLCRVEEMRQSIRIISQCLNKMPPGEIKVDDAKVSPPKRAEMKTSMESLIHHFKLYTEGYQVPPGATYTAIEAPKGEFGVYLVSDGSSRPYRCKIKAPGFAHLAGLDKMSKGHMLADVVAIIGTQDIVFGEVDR
Sequence (P42026 38-216): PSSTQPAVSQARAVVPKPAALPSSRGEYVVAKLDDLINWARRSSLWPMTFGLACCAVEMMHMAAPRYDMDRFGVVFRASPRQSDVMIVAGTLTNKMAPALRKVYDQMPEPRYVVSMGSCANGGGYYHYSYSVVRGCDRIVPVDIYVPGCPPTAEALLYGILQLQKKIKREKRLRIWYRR
Sequence (P03887 whole entry): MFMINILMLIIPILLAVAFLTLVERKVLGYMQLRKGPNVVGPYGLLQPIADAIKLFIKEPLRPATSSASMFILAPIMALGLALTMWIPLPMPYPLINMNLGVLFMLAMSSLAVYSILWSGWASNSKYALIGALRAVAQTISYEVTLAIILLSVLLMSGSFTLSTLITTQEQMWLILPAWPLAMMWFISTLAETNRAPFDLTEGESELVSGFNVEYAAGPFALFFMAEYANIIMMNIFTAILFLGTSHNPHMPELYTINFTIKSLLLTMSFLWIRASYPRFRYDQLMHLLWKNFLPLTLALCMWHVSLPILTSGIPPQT
MEASURE: IC50

Cc1cc(-c2nc(-c3ccc(OC(F)(F)F)cc3)no2)nn1Cc1ccnc(N2CCN(C3CC3)CC2)c1; ~500 nM
